assay: Assessment of solubility: HT solubility in pION buffer, UV spectrophotometry; details: pION system solution buffer, pH 7.4, pH 7.4, aqueous buffer, kinetic from dmso stock, Solubility (pH 7.4), pH 7.4 buffer, 16-19 h incubation, 1.0% DMSO
parameter: solubility

Below: 2 molecules and their reported solubility.
INSERT INTO measurements (molecule, observed) VALUES
  ('Cc1cc(C(=O)N2CCCCC2)ccc1COc1ccc(F)cc1-c1csc(C2=CCC(C(=O)O)CC2)n1 (stereo not drawn) [Compound 48]', '27 µg/mL'),
  ('Cc1ccc(OCc2ccc(CN3CCOCC3)cc2C)c(-c2csc(N3CC4C(C3)C4C(=O)O)n2)c1 (stereo not drawn) [Compound 14]', '> 63 µg/mL');

Let us examine a further case.
IN: Consider the molecule Cc1cc(CN2CCOCC2)ccc1COc1ccccc1-c1csc(N2CC3CCC(C2)C3C(=O)O)n1 (stereo not drawn) [Compound 43] . State its measured solubility.
OUT: > 60 µg/mL
